target: Recombinant BTK^WT kinase (Homo sapiens); assay: BTK WT binding affinity (LanthaScreen TR-FRET); conditions: Kinase Tracer 236, 5 h incubation
pIC50: −log10 of the molar value.
MEASUREMENT NAME: pIC50

Answered examples (3):
- MOLECULE: "COc1ccc(F)cc1C(=O)NCc1ccc(-c2nn(CC(F)(F)F)c(N)c2C(N)=O)cc1F"
  VALUE REPORTED: "> 8.00"
- MOLECULE: "COc1ccccc1C(=O)NCc1ccc(-c2nn(C3CCCC3)c(N)c2C(N)=O)cc1F"
  VALUE REPORTED: "> 8.00"
- MOLECULE: "COc1ccccc1C(=O)NCc1ccc(-c2nn(C3CCOC3C)c(N)c2C(N)=O)cc1 (single isomer, unassigned) [Example 77]"
  VALUE REPORTED: "> 8.00"

Tested on Recombinant BTK^WT kinase (Homo sapiens), the item COc1ccc(F)cc1C(=O)NCc1ccc(-c2nn([C@H](C)C(F)(F)F)c(N)c2C(N)=O)cc1 (single isomer, unassigned) [Example 163a] showed pIC50 equal to > 8.00

Tested on Recombinant BTK^WT kinase (Homo sapiens), the item `COc1ccccc1C(=O)NCc1ccc(-c2nn(C3CCOCC3)c(N)c2C(N)=O)cc1F` showed pIC50 equal to 7.00 to 8.00

* * *

Target: Recombinant BTK^WT kinase (Homo sapiens, UniProt Q06187)
Sequence (Q06187 whole entry): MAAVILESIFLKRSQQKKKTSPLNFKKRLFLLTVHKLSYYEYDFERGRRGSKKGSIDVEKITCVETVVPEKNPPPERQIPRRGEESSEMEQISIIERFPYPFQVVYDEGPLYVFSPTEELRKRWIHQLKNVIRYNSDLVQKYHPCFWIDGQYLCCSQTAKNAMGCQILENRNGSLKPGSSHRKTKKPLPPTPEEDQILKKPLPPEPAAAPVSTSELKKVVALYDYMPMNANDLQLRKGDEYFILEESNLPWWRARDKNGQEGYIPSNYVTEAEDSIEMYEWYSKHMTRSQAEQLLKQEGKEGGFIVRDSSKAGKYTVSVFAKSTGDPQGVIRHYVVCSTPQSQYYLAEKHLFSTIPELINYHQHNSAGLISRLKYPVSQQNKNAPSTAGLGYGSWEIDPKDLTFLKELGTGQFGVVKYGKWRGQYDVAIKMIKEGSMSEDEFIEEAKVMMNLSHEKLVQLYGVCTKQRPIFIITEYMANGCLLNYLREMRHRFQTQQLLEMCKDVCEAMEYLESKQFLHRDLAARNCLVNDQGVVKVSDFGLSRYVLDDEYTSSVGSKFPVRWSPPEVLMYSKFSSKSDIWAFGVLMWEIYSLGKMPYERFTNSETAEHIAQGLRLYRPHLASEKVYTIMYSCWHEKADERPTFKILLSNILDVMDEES
Assay: BTK WT binding affinity (LanthaScreen TR-FRET)
Settings: Kinase Tracer 236, 5 h incubation
Description: BTK^WT binding affinity of each compound tested was determined using a time-resolved fluorescence resonance energy transfer (TR-FRET) methodology. 2.5 nM Recombinant BTK^WT kinase, varying concentrations of inhibitor, 2 nM LanthaScreen™ Eu anti-His Antibody and 15 nM Kinase Tracer 236 was incubated in 1× LanthaScreen™ Kinase Buffer A for 5 h. […] The TR-FRET signal was read on a plate reader with an excitation wavelength of 340 nm and detection wavelengths of 615 and 665 nm. […]
pIC50: −log10 of the molar value.
Each entry below carries its reported pIC50.

- COMPOUND: "COc1ccccc1C(=O)NCc1ccc(-c2nn(CC(F)(F)F)c(N)c2C(N)=O)cc1F"
  MEASUREMENT NAME: "pIC50"
  VALUE REPORTED: "> 8.00"
- COMPOUND: "CNc1c(C(N)=O)c(-c2ccc(CNC(=O)c3ccccc3OC)cc2)nn1C1CCOC1 (centres unmarked)"
  MEASUREMENT NAME: "pIC50"
  VALUE REPORTED: "7.00 to 8.00"
- COMPOUND: "CNc1c(C(N)=O)c(-c2ccc(CNC(=O)c3ccccc3OC)cc2)nn1-c1cccnc1"
  MEASUREMENT NAME: "pIC50"
  VALUE REPORTED: "7.00 to 8.00"
- COMPOUND: "COc1ccccc1C(=O)NCc1ccc(-c2nn([C@@H]3COC[C@H]3O)c(N)c2C(N)=O)cc1 (relative stereo)"
  MEASUREMENT NAME: "pIC50"
  VALUE REPORTED: "7.00 to 8.00"

Next:
Measured pIC50 of COc1ccccc1C(=O)NCC(O)c1ccc(-c2nn(C3CCCC3)c(N)c2C(N)=O)cc1C (centres unmarked) : 6.00 to 7.00

* * *

Each entry below carries its reported IC50.
target: Recombinant EGFR (Homo sapiens, UniProt P00533); assay: EGFR binding affinity (LanthaScreen TR-FRET); conditions: Kinase Tracer 199, 5 h incubation
Sequence (P00533 25-1210): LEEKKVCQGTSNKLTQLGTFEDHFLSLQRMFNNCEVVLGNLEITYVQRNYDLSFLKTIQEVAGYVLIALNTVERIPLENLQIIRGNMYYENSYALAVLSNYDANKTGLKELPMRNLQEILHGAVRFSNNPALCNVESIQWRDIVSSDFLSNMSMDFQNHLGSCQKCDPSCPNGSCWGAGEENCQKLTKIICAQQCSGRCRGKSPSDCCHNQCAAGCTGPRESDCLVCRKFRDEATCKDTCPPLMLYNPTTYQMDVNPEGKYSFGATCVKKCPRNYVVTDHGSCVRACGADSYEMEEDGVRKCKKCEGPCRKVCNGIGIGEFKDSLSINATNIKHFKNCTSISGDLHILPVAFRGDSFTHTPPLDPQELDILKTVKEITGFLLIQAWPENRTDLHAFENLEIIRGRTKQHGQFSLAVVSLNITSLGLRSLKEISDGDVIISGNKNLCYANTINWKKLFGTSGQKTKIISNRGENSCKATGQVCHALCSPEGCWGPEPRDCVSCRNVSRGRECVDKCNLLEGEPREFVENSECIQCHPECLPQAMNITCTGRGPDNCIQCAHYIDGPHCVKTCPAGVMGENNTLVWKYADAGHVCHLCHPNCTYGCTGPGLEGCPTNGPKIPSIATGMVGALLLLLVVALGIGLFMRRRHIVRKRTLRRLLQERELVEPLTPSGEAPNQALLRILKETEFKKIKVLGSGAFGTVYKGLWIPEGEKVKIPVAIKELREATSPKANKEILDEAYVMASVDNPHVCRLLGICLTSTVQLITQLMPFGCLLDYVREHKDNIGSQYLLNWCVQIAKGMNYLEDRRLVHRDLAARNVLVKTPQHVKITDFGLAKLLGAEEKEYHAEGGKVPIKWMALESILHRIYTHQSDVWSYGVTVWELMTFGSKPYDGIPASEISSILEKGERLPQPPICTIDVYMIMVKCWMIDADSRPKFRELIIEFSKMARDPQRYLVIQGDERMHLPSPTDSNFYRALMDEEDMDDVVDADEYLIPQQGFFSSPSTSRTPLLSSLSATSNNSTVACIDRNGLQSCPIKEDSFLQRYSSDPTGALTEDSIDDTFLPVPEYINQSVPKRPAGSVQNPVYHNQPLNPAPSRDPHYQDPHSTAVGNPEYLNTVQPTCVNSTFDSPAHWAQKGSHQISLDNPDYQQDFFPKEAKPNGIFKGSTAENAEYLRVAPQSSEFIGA

- COMPOUND: "COc1ccccc1C(=O)NCc1ccc(-c2nn(C3CN(C)CC3(F)F)c(N)c2C(N)=O)cc1 (stereo not shown) [Example 167]"
  IC50: "1 to 10 µM"
- COMPOUND: "COc1ccc(F)cc1C(=O)NCc1c(F)cc(-c2nn(C3CCCOC3)c(N)c2C(N)=O)cc1F (stereo not shown) [Example 158]"
  IC50: "> 10 µM"

Measured IC50 of COc1ccccc1C(=O)NCc1ccc(-c2nn(CCC#N)c(N)c2C(N)=O)cc1 [Example 11] : 1 to 10 µM

Measured IC50 of COc1ccccc1C(=O)NCc1ccc(-c2nn(C(C)c3cccnc3)c(N)c2C(N)=O)cc1 (stereo not shown) [Example 145] : > 10 µM

* * *

Each entry below carries its reported IC50.
target: Recombinant BTK^WT kinase (Homo sapiens, UniProt Q06187); assay: BTK WT binding affinity (LanthaScreen TR-FRET); conditions: Kinase Tracer 236, 5 h incubation

Answered examples (2):
- MOLECULE: "COc1ccccc1C(=O)NCc1ccc(-c2nn([C@H]3CC[C@H](O)C3)c(N)c2C(N)=O)cc1 (relative stereo) [Example 46]"
  IC50: "< 10 nM"
- MOLECULE: "COc1ccccc1C(=O)NCc1ccc(-c2nn(C3CCC(C(=O)N(C)C)CC3)c(N)c2C(N)=O)cc1 (single isomer, unassigned) [Example 57a]"
  IC50: "< 10 nM"

Tested on Recombinant BTK^WT kinase (Homo sapiens, UniProt Q06187), the item COc1ccccc1C(=O)NCc1ccc(-c2nn(C3CCC(O)(C(F)(F)F)CC3)c(N)c2C(N)=O)cc1 (stereo not drawn) [Example 65] showed IC50 equal to < 10 nM

Tested on Recombinant BTK^WT kinase (Homo sapiens, UniProt Q06187), the item COc1ccc(F)cc1C(=O)NCc1ccc(-c2nn(C(C3CCOCC3)C(F)(F)F)c(N)c2C(N)=O)cc1 (stereo not drawn) [Example 184] showed IC50 equal to 10 to 100 nM

Tested on Recombinant BTK^WT kinase (Homo sapiens, UniProt Q06187), the item COc1ccccc1C(=O)NCc1ccc(-c2nn(C3CCOCC3F)c(N)c2C(N)=O)cc1 (single isomer, unassigned) [Example 95] showed IC50 equal to 10 to 100 nM

Tested on Recombinant BTK^WT kinase (Homo sapiens, UniProt Q06187), the item COc1ccccc1C(=O)NCc1ccc(-c2nn(-c3cccc(C)c3)c(N)c2C(N)=O)cc1 [Example 50] showed IC50 equal to < 10 nM

* * *

target: Recombinant BTK^WT kinase (Homo sapiens); test: BTK WT binding affinity (LanthaScreen TR-FRET); details: Kinase Tracer 236, 5 h incubation
pIC50: −log10 of the molar value.
MEASUREMENT NAME: pIC50

Answered examples (2):
- COMPOUND: "COc1ccc(F)cc1C(=O)NCc1ccc(-c2nn(C3CCOCC3)c(N)c2C(N)=O)c(F)c1F"
  pIC50: "> 8.00"
- COMPOUND: "COc1ccc(F)cc1C(=O)NCc1cc(F)c(-c2nn(C3CCCC3)c(N)c2C(N)=O)cc1F"
  pIC50: "> 8.00"

Next:
Measured pIC50 of COc1ccc(F)cc1C(=O)NCc1ccc(-c2nn(C3CNCC3(F)F)c(N)c2C(N)=O)cc1 (stereo not drawn) : > 8.00

* * *

Each entry below carries its reported IC50.
target: Recombinant BTK^WT kinase (Homo sapiens); experiment: BTK WT binding affinity (LanthaScreen TR-FRET); settings: Kinase Tracer 236, 5 h incubation

- MOLECULE: "COc1ccc(F)cc1C(=O)NCc1ccc(-c2nn(CC(F)(F)F)c(N)c2C(N)=O)cc1"
  IC50: "< 10 nM"
- MOLECULE: "COc1ccc(F)cc1C(=O)NCc1ccc(-c2nn([C@@H]3CCCOC3)c(N)c2C(N)=O)cc1"
  IC50: "< 10 nM"
- MOLECULE: "COc1ccccc1C(=O)NCc1ccc(-c2nn(C3CCOC3)c(N)c2C(N)=O)cc1 (stereo not shown)"
  IC50: "< 10 nM"
- MOLECULE: "COc1ccccc1C(=O)NC(CO)c1ccc(-c2nn(C3CCCC3)c(N)c2C(N)=O)cc1C (stereo not shown)"
  IC50: "1000 to 10000 nM"
- MOLECULE: "COc1ccccc1C(=O)NCc1ccc(-c2nn(CC3(C)COC3)c(N)c2C(N)=O)cc1"
  IC50: "100 to 1000 nM"

Tested on Recombinant BTK^WT kinase (Homo sapiens), the item `COc1ccccc1C(=O)NCc1ccc(-c2nn(CCN3CCOCC3)c(N)c2C(N)=O)cc1` showed IC50 equal to 10 to 100 nM

Tested on Recombinant BTK^WT kinase (Homo sapiens), the item `COc1ccc(F)cc1C(=O)NCc1ccc(-c2nn(C3CCOCC3)c(N)c2C(N)=O)c(F)c1` showed IC50 equal to < 10 nM

* * *

target: Recombinant BTK^C481S kinase (Homo sapiens, UniProt Q06187, C481S); assay: BTK C481S binding affinity (LanthaScreen TR-FRET); settings: Kinase Tracer 236, 5 h incubation
Sequence (Q06187 whole entry C481S): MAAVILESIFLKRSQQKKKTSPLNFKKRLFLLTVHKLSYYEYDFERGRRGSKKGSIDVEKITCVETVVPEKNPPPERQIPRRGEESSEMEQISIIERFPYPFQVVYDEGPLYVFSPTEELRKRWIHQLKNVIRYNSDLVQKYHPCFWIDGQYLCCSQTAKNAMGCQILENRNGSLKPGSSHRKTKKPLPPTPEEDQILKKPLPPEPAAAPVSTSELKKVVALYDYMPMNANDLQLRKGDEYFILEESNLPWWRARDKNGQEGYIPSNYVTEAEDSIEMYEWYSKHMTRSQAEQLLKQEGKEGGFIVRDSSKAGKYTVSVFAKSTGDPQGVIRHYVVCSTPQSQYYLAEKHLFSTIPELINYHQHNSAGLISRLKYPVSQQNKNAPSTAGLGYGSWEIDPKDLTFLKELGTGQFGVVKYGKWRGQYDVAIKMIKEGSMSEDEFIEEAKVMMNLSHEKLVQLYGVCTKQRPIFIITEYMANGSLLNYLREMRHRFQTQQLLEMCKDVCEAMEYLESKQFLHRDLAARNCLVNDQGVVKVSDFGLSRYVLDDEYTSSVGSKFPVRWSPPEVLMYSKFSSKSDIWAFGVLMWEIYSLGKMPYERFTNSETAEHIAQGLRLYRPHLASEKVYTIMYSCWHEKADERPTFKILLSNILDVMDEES
pIC50: −log10 of the molar value.
Each entry below carries its reported pIC50.

Answered examples (3):
- MOLECULE: "COc1ccccc1C(=O)NCc1cc(F)c(-c2nn(C3CCCOC3)c(N)c2C(N)=O)cc1F (centres unmarked) [Example 151]"
  VALUE REPORTED: "> 8.00"
- MOLECULE: "COc1ccccc1C(=O)NCc1ccc(-c2nn(C3CCOCC3)c(N)c2C(N)=O)c(F)c1 [Example 99]"
  VALUE REPORTED: "> 8.00"
- MOLECULE: "COc1ccc(F)cc1C(=O)NCc1ccc(-c2nn(C3(C(F)(F)F)CCOCC3)c(N)c2C(N)=O)cc1 [Example 190]"
  VALUE REPORTED: "7.00 to 8.00"

Measured pIC50 of COc1ccccc1C(=O)NCc1ccc(-c2nn(C3CCCC3)c(Cl)c2C(N)=O)cc1 [Example 78] : 7.00 to 8.00

Measured pIC50 of COc1ccccc1C(=O)NCc1ccc(-c2nn(C3CCOCC3F)c(N)c2C(N)=O)cc1 (single isomer, unassigned) [Example 95] : > 8.00
